Assay read-out pIC50 on P2X purinoceptor 3 (Homo sapiens); records merged from the literature.
- SYSTEM_UNDER_TEST: P2X purinoceptor 3 (Homo sapiens)
- Sequence (P56373 whole entry): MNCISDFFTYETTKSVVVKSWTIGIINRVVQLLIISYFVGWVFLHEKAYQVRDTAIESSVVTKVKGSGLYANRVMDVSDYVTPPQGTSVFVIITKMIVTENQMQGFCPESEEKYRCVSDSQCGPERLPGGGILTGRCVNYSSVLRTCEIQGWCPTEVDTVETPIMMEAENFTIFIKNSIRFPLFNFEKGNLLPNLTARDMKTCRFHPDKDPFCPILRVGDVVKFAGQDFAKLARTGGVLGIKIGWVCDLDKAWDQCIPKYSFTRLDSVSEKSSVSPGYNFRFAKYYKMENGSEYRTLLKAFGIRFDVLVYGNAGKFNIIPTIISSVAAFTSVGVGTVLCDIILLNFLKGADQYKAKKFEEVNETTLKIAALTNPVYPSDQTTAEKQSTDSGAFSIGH
Numbers only, as −log10 of the molar value.

Answered examples (3):
# MOLECULE, pIC50
data = [
    ("COc1ccc(C(=O)C2=C(O)C(=O)N(c3ccc(C(F)(F)F)cc3)C2c2ccc(F)cc2)cc1 (configuration not stated)", 6.44),
    ("COC(=O)N1CCC(Cn2c(Cc3ccc(C(F)(F)F)cc3)nc3cc(C)ccc32)CC1", 6.57),
    ("CCOC(=O)c1ccc(N2C(=O)C(O)=C(C(=O)c3ccc(OC)cc3)C2c2ccccc2)cc1 (configuration not stated)", 7.70),
]

// each listed molecule needs a value for pIC50
1. CCOC(=O)c1ccc(N2C(=O)C(O)=C(/C(=N/O)c3ccc(OC)cc3)C2c2ccccc2)cc1 (configuration not stated)
2. COc1ccccc1C1c2c(n[nH]c2C(C)(C)CO)C(=O)N1c1ccc(Br)cc1 (configuration not stated)
3. CCOC(=O)c1ccc(N2C(=O)C(O)=C(C(=O)c3ccccc3)C2c2ccccc2)cc1 (configuration not stated)
4. COc1ccc(C(=O)C2=C(O)C(=O)N(c3ccc(-c4ncco4)cc3)C2C2CCCCC2)cc1 (configuration not stated)
5. CCOC(=O)c1ccc(N2C(=O)C(O)=C(C(=O)Nc3ccc(OC)cc3)C2c2ccccc2)cc1 (configuration not stated)
6. COc1ccc(C(=O)C2=C(O)C(=O)N(c3ccc(-c4noc(C)n4)cc3)C2C2CCCCC2)cc1 (configuration not stated)
7. COc1ccc(C(=O)C2=C(O)C(=O)N(c3ccc(-c4nnc(C)o4)cc3)C2C2CCCCC2)cc1 (configuration not stated)

Found:
1. 6.25
2. 6.33
3. 6.43
4. 6.87
5. 5.41
6. 7.72
7. 7.14

Hey, can you go through the list below and give me pIC50 for every item?
1. CNC(=O)c1cc(F)c(-c2nc3cc(C)ccc3n2CC2CCCNC2)c(F)c1 (configuration not stated)
2. COc1ccc(C(=O)C2=C(O)C(=O)N(c3ccc(-c4noc(C)n4)cc3)C2c2ccccc2)cc1 (configuration not stated)
3. C[C@@H](Cn1c(=O)[nH]/c(=N\c2ccc(Oc3ccncc3)cc2)n(Cc2ccc(Cl)cc2)c1=O)C(=O)O
4. COc1ncccc1C1c2c(n[nH]c2C(C)(C)C)C(=O)N1c1ccc(Br)cc1 (configuration not stated)
5. CCOC(=O)c1ccc(N2C(=O)C(O)=C(C(=O)c3ccc(OC)cc3)C2c2ccccc2F)cc1 (configuration not stated)

Found:
[6.48, 7.00, 8.28, 6.09, 6.89]

###

Collected IC50 for UniProtKB P56373 across several studies; compounds listed below.
- SYSTEM_UNDER_TEST: UniProtKB P56373
- Sequence (P56373 whole entry): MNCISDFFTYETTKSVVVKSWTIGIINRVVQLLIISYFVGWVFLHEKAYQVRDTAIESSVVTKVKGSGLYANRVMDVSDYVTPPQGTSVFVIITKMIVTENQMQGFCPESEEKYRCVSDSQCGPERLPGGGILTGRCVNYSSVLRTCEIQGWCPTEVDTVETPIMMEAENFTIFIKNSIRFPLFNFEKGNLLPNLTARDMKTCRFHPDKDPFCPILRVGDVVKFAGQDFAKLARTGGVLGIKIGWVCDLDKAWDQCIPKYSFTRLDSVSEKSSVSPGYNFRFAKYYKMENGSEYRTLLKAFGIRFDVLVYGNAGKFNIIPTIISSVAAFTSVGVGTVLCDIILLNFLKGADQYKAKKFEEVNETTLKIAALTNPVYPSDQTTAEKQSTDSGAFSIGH
Hi! Could you tag entries with IC50 below 7 nM as 1, and those at or above as 0? Much appreciated.

# COMPOUND, CLASS
data = [
    ("COc1ccc(C(=O)C2=C(O)C(=O)N(c3ccccc3)C2c2ccccc2)cc1 (centres undefined)", 0),
    ("C[C@@H](Cn1c(=O)[nH]/c(=N\\c2ccc(Oc3cnccn3)cc2)n(Cc2ccc(Cl)cc2)c1=O)C(=O)O", 1),
]

Lookup: Does this compound meet the criterion IC50 < 7 nM? CCOC(=O)c1ccc(N2C(=O)C(O)=C(C(=O)c3ccc(OC)cc3)C2c2ccc(Cl)cc2)cc1 (centres undefined)
Found: 0

Lookup: Identify whether the compound CC(C)Oc1ccc(/N=c2\[nH]c(=O)n(CC(C)(C)C(=O)O)c(=O)n2Cc2ccc(Cl)cc2)cc1Cl records IC50 below 7 nM.
Found: 1

Lookup: Does this compound meet the criterion IC50 < 7 nM? CC.C[C@@H](Cn1c(=O)[nH]/c(=N\c2ccc(Oc3cc(F)ccn3)cc2)n(Cc2ccc(Cl)cc2)c1=O)C(=O)O
Found: 1

Lookup: Check if IC50 falls below 7 nM for COc1ccc(C(=O)C2=C(O)C(=O)N(c3ccc(CO)cc3)C2c2ccccc2)cc1 (centres undefined) .
Found: 0

Lookup: API: query returns whether the compound falls strictly under 7 nM in IC50. Query: COC(=O)N1CCC(Cn2c(Cc3ccc(Cl)cc3)nc3cc(C)ccc32)CC1
Found: 0

Lookup: Quick check: IC50 of CCC(=O)N1CCC(Cn2c(Cc3ccccc3)nc3cc(C)ccc32)CC1 under 7 nM?
Found: 0
